// provenance: patent US20260356856A1

- System: KRas-mediated phosphorylation of ERK in H358 cells (Homo sapiens, UniProt P01116, G12C)
- Construct: pERK HTRF read-out
- Sequence (P01116 1-188 isoform P01116-2 G12C): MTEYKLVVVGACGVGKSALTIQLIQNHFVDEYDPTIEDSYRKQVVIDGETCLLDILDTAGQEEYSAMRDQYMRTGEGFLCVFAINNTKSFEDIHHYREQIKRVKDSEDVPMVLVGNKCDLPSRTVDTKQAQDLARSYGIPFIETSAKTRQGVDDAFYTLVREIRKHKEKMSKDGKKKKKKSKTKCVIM
- Protocol summary: Inhibition of KRas-mediated phosphorylation of ERK (HTRF), H358 cells
- Type: cell-based
- Condition notes: HTRF pERK, 3 h incubation
Recorded endpoint: IC50 (nM)
Could you give me the number in nM? Just the number is fine.

Take a look at these entries with their results.
# Compound, Units symbol, IC50
measured = [
    ("CCc1c(F)ccc2cc(O)cc(-c3ncc4c(N5CCC(C(=O)n6cc(N(C)C)cn6)CC5)nc(OC[C@@]56CCCN5C[C@H](F)C6)nc4c3F)c12", "nM", 4600),
    ("N#Cc1c(N)sc2c(F)ccc(-c3c(Cl)cc4c(N5CCCC(C(=O)n6ccc(C7CC7)n6)CC5)nc(OC[C@@]56CCCN5C[C@H](F)C6)nc4c3F)c12 (stereo partly drawn)", "nM", 43),
]

Field: next compound
The value of IC50 measured for the compound CCc1c(F)ccc2cc(O)cc(-c3ncc4c(N5CCC(C(=O)n6ccc(OC)n6)CC5)nc(OC[C@@]56CCCN5C[C@H](F)C6)nc4c3F)c12 turned out to be 8570

###

- System: KRas G12C (Homo sapiens, UniProt P01116, G12C)
- Construct: Biotinylated KRas (corresponding to amino acids 1-169, produced at Accelegan Inc.); biotin (biotinylated); purchased Accelegan Inc
- Protocol summary: KRas binding assay, TR-FRET displacement of Cy5 labelled tracer
- Condition notes: 60-minute incubation at room temperature, 1% DMSO, pH 7.5
Listed here: items and their measured IC50.
Number in nM, nothing else.

// below: answered compounds
# Compound, Units symbol, Reported result
records = [
    ("C#CCC1(C(=O)n2ccc(C)n2)CCN(c2nc(OC[C@@]34CCCN3C[C@H](F)C4)nc3c(F)c(-c4cc(O)cc5ccc(F)c(CC)c45)ncc23)C1 (some centres unmarked) [Example 108]", "nM", 339),
    ("CCc1c(F)ccc2cc(O)cc(-c3ncc4c(N5CCCC(C(=O)n6ccc(C)n6)CC5)nc(OCC5(CN(C)C)CC5)nc4c3F)c12 (centres unmarked) [Example 167]", "nM", 94),
    ("CN(CCCC(=O)Oc1cccc(F)c1)c1nc(OC[C@@]23CCCN2C[C@H](F)C3)nc2c(F)c(-c3ccc(F)c4sc(N)c(C#N)c34)c(Cl)cc12 [Example 198]", "nM", 2),
]

As a next step, examine the compound that follows.
// field: IC50; key: Cc1ccn(C(=O)C2CCCN(c3nc(OC[C@@]45CCCN4C/C(=C\F)C5)nc4c(F)c(-c5ccc(F)c6sc(N)c(C#N)c56)c(Cl)cc34)CC2)n1 (some centres unmarked) [Example 175] ; value = 9

###

- System: KRas WT (Homo sapiens)
- Construct: Biotinylated KRas (corresponding to amino acids 1-169, produced at Accelegan Inc.); biotin (biotinylated); purchased Accelegan Inc
- Sequence (P01116 1-169 isoform P01116-2): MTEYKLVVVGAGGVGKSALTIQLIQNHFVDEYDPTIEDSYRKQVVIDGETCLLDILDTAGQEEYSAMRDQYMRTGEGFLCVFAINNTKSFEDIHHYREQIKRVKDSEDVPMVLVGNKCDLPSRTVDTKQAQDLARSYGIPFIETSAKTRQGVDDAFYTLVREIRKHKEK
- Protocol summary: KRas binding assay, TR-FRET displacement of Cy5 labelled tracer
- Condition notes: 60-minute incubation at room temperature, 1% DMSO, pH 7.5
Recorded endpoint: IC50 (nM)
Give the value in nM but do not write nM after it.

Per the record, CCc1c(F)ccc2cc(O)cc(-c3ncc4c(N5CCN(C(=O)n6cccn6)CC5)nc(OC[C@@]56CCCN5C[C@H](F)C6)nc4c3F)c12 has IC50 of 24

Query Cc1ccn(C(=O)CCCNc2nc(OC[C@@]34CCCN3C[C@H](F)C4)nc3c(F)c(-c4ccc(F)c5sc(N)c(C#N)c45)c(Cl)cc23)n1 yields IC50 of 10

Lab note: N#Cc1c(N)sc2c(F)ccc(-c3c(Cl)cc4c(N5CCC(C(=O)n6cccn6)CC5)nc(OC[C@@]56CCCN5C[C@H](F)C6)nc4c3F)c12 gave IC50 of 8

// field: IC50; key: CCc1c(F)ccc2cc(O)cc(-c3ncc4c(N5CCC(C=O)CC5)nc(OC[C@@]56CCCN5C[C@H](F)C6)nc4c3F)c12 ; value = 11

molecule COC(=O)C1CCN(c2nc(OC[C@@]34CCCN3C[C@H](F)C4)nc3c(F)c(-c4ccc(F)c5sc(N)c(C#N)c45)c(Cl)cc23)CC1 , IC50 observed: 6

Sample O=C(OCC(F)(F)F)[C@@H]1[C@@H]2CC[C@H]1CN(c1nc(OCC34CCCN3CCC4)nc3c(F)c(-c4cccc5cccc(F)c45)ncc13)C2 ; IC50 observed: 7970

Field IC50 (entry COCC(=O)N(C)C(=O)CCCN(C)c1nc(OC[C@@]23CCCN2C[C@H](F)C3)nc2c(F)c(-c3ccc(F)c4sc(N)c(C#N)c34)c(Cl)cc12 ) reads 8

// field: IC50; key: CN(CCCC(=O)Oc1ccccc1)c1nc(OC[C@@]23CCCN2C[C@H](F)C3)nc2c(F)c(-c3ccc(F)c4sc(N)c(C#N)c34)c(Cl)cc12 ; value = 38

The molecule listed as Cc1ccn(C(=O)CCCCN(C)c2nc(OC[C@@]34CCCN3C[C@H](F)C4)nc3c(F)c(-c4ccc(F)c5sc(N)c(C#N)c45)c(Cl)cc23)n1 has a reported IC50 of 26

Measured IC50 of CCc1c(F)ccc2cc(O)cc(-c3ncc4c(N(C)CCCC(=O)n5ccc(C)n5)nc(OC[C@@]56CCCN5C[C@H](F)C6)nc4c3F)c12 : 58
